Recorded M07e %inh for the following molecules
system: M07e; parameters: species or system AML cell lines (8); Primary HTS, single concentration about 10 uM, Cell Titer Glo viability; log10 luminescence, per cent inhibition relative to cycloheximide control; details: 72 h, relative to cycloheximide control, log10 luminescence; inhibitor
Numbers only; they are read as %.

Cn1cc(C2=C(c3cn(C)c4ccc(OCc5ccccc5)cc34)C(=O)NC2=O)c2ccccc21    0.1859
NC(CCC(=O)NOC(=O)c1ccccc1)C(=O)N1CCCC1 (stereo not shown)    3.014
COc1cc2ncn(-c3cc(OCc4ccccc4C(F)(F)F)c(C(=O)N(C)C)s3)c2cc1OC    -4.272
NCc1ccc(-n2c(-c3nonc3N)nc3cnccc32)cc1    5.233
N#Cc1cnc2cnc(NCc3cccnc3)cc2c1Nc1ccc(F)c(Cl)c1    3.597
Cn1c(=O)c(Oc2cccc(F)c2)cc2cnc(NC3CCOCC3)nc21    0.7165
NS(=O)(=O)c1cccc(Nc2cc(-c3ccc(F)cc3)n[nH]2)c1    6.143
FC(F)(F)c1ccc(-c2nn3ncccc3c2-c2ccnc(Nc3ccc4c(c3)OCCO4)n2)cc1    2.059

Inquiry: Give M07e %inh for the following molecule: c1ccc(-c2n[nH]cc2-c2ccnc(-c3ccc(OCCn4ccnc4)cc3)c2)nc1
Reply text: -2.852

Inquiry: Give M07e %inh for the following molecule: N#Cc1c(C(=O)c2ccccc2)cnn1-c1ccccc1
Reply text: 8.327

Inquiry: Give M07e %inh for the following molecule: O=C1NC(=O)C(N2CCc3ccccc32)=C1c1ccc(Cl)cc1
Reply text: -0.7324

Inquiry: Give M07e %inh for the following molecule: COc1cc(Nc2ncc(-c3ccccc3)o2)cc(OC)c1OC
Reply text: 25.07

Inquiry: Give M07e %inh for the following molecule: N#Cc1cccc(C(=O)c2cnn(-c3ccc(F)cc3)c2N)c1
Reply text: 5.547

Inquiry: Give M07e %inh for the following molecule: CC(=O)Nc1cccc(-n2c(=O)n(C3CC3)c(=O)c3c(Nc4ccc(I)cc4F)n(C)c(=O)c(C)c32)c1
Reply text: 16.11

Inquiry: Give M07e %inh for the following molecule: C[C@H](NC(=O)Cc1cc(F)cc(F)c1)C(=O)N[C@H](C(=O)OC(C)(C)C)c1ccccc1
Reply text: 1.132

Inquiry: Give M07e %inh for the following molecule: O=C1C(c2c[nH]c3ccccc23)=C(c2c[nH]c3ccccc23)C(=O)N1O
Reply text: 0.7451

###

test system: MOLM-13; experiment: Secondary dose-response HTS, Cell Titer Glo; format: cell-based, human; settings: Homo sapiens; secondary high-throughput screen; MOLM-13; read-out: average effective concentration, MOLM-13
recorded-metric: pEC50
Note: pEC50 values are expressed as the negative base-10 logarithm of concentration in M.

Nc1nc2nc[nH]c2c(=S)[nH]1    5.31

Inquiry: Give pEC50 for the following compound: O=c1oc2c(O)c(O)cc3c(=O)oc4c(O)c(O)cc1c4c23
Reply text: 6.10

Inquiry: Give pEC50 for the following compound: CC(C)c1cc(-c2n[nH]c(=O)n2-c2ccc3c(ccn3C)c2)c(O)cc1O
Reply text: 8.62

Inquiry: Give pEC50 for the following compound: CN(C)C1CCN(C(=O)c2ccc(NC(=O)Nc3ccc(-c4nc(N5CCOCC5)nc(N5CCOCC5)n4)cc3)cc2)CC1
Reply text: 6.72

Inquiry: Give pEC50 for the following compound: CN(C)C/C=C/C(=O)Nc1cc2c(Nc3ccc(F)c(Cl)c3)ncnc2cc1O[C@H]1CCOC1
Reply text: 5.25

Inquiry: Give pEC50 for the following compound: O=C(CCCCCCC(=O)Nc1cccnc1)NO [PYROXAMIDE]
Reply text: 5.22

Inquiry: Give pEC50 for the following compound: COc1cc(OC)c(/C=C/S(=O)(=O)Cc2ccc(OC)c(NCC(=O)O)c2)c(OC)c1 [rigosertib, reference compound]
Reply text: 8.22

###

Recorded pEC50 for the following compounds
tested on: ML2; experiment: Secondary dose-response HTS, Cell Titer Glo; assay type: cell-based, human; settings: secondary high-throughput screen; ML-2; read-out: average effective concentration, ML-2
Note: pEC50 values are expressed as the negative base-10 logarithm of concentration in M.

Recorded pEC50, per entry:
O=C(CCCCCCSc1ccc2ccccc2c1)NO    5.07
C=C1C(=O)O[C@@H]2C[C@@]3(C)CCCC(=C)[C@@H]3C[C@H]12    5.18
O=C(/C=C/c1cccc(C(=O)NO)c1)NO    5.28

Now for another entry.
Inquiry: Give pEC50 for the following compound: C[n+]1c2cc(N)ccc2cc2ccc(N)cc21
Reply text: 5.11

###

Recorded MOLM-13 %inh for the following compounds
test system: MOLM-13; parameters: species or system AML cell lines (8); Primary HTS, single concentration about 10 uM, Cell Titer Glo viability; log10 luminescence, per cent inhibition relative to cycloheximide control; settings: 72 h, relative to cycloheximide control, log10 luminescence; inhibitor
Numbers only; they are read as %.

Recorded MOLM-13 %inh, per entry:
O=C1CCc2cc(OCCCCc3nnnn3C3CCCCC3)ccc2N1    2.454
CC(C)c1[nH]nc2c1N=C(c1ccccc1Cl)c1cc([N+](=O)[O-])ccc1N2    0.5223
C=CCNC(=O)c1cc([N+](=O)[O-])cc2c(=O)[nH]c(Nc3ccc(Cl)c(Cl)c3)nc12    0.5205

Inquiry: Give MOLM-13 %inh for the following compound: COc1ccc(-c2cc3c(N)ncnc3o2)cc1
Reply text: 4.813

Inquiry: Give MOLM-13 %inh for the following compound: FC(F)(F)CNc1nccc(-c2cnn3ncccc23)n1
Reply text: 10.23

Inquiry: Give MOLM-13 %inh for the following compound: NCC1(CC(=O)O)CCCCC1
Reply text: 0.8376

Inquiry: Give MOLM-13 %inh for the following compound: Fc1ccc(-c2c(-c3ccncc3)[nH]c3nccnc23)cc1
Reply text: -0.4618

Inquiry: Give MOLM-13 %inh for the following compound: CNc1ncc2cc(Oc3ccc(F)cc3F)c(=O)n(C)c2n1
Reply text: 3.528

Inquiry: Give MOLM-13 %inh for the following compound: C[C@@H](Cn1ncnn1)Nc1ncc2cc(Oc3ccc(F)cc3F)c(=O)n(C)c2n1
Reply text: 1.122

###

test system: M07e; parameters: species or system AML cell lines (8); Primary HTS, single concentration about 10 uM, Cell Titer Glo viability; log10 luminescence, per cent inhibition relative to cycloheximide control; conditions: 72 h, relative to cycloheximide control, log10 luminescence; inhibitor
recorded-metric: M07e %inh (%)
Numbers only; they are read as %.

CC[N+](C)(CC)CCOC(=O)C(O)(c1ccccc1)C1CCCCC1 (stereo not drawn) [SJ000555718-1, OXYPHENONIUM BROMIDE]    -3.166

Inquiry: Give M07e %inh for the following molecule: Nc1[nH]nc2nnc(-c3c(-c4ccccc4)nn4ccccc34)cc12 [SJ000773182-1, FR 180204]
Reply text: 4.808

Inquiry: Give M07e %inh for the following molecule: Cn1cc(C2=C(c3cn(C)c4c(N)cccc34)C(=O)NC2=O)c2ccccc21 [SJ000581084-1]
Reply text: 30.04

Inquiry: Give M07e %inh for the following molecule: Nc1c(C(=O)c2cccc(OC[C@H](O)CO)c2)cnn1-c1ccc(F)cc1 [SJ000581020-1]
Reply text: 2.292

Inquiry: Give M07e %inh for the following molecule: CS(=O)(=O)CCNCc1ccc(-c2ccc3ncnc(Nc4ccc(OCc5ccccc5)cc4)c3c2)o1 [SJ000573093-1, R1325/200/3]
Reply text: 6.213

Inquiry: Give M07e %inh for the following molecule: CCOc1ccccc1CCN=C1NC(=O)/C(=C/c2ccc3ncccc3c2)S1 [SJ000581120-1]
Reply text: 13.3

Inquiry: Give M07e %inh for the following molecule: COc1cc(Nc2ncc3c(C)nc(-c4cccc(Oc5ccccc5)c4)n3n2)cc(OC)c1OC [SJ000573063-1, U19891/44/1]
Reply text: 11.27

Inquiry: Give M07e %inh for the following molecule: NS(=O)(=O)c1cc2c(cc1Cl)NC(C1CC3C=CC1C3)NS2(=O)=O (stereo not drawn) [SJ000287770-4, CYCLOTHIAZIDE]
Reply text: -1.741

###

tested on: ML-2; parameters: species or system AML cell lines (8); Primary HTS, single concentration about 10 uM, Cell Titer Glo viability; log10 luminescence, per cent inhibition relative to cycloheximide control; conditions: 72 h, relative to cycloheximide control, log10 luminescence; inhibitor
Recorded ML-2 %inh for the following compounds
Numbers only; they are read as %.

Recorded ML-2 %inh, per entry:
Clc1ccc2c(N3CCN(CCCN4CCN(c5ccnc6cc(Cl)ccc56)CC4)CC3)ccnc2c1 [SJ000518980-1, PIPERAQUINE PHOSPHATE]    -2.97
Cc1[nH]nc2c1N=C(c1ccccc1Cl)c1cc([N+](=O)[O-])ccc1N2 [SJ000581173-1]    56.78
CCCCC1=NC2(CCCC2)C(=O)N1Cc1ccc(-c2ccccc2-c2nnn[nH]2)cc1 [SJ000286674-2, IRBESARTAN]    1.25
Cc1nn(C)c2cc(N(C)c3ccnc(Nc4cccc(S(N)(=O)=O)c4)n3)ccc12 [SJ000573237-1, U17574/1/1]    1.956
COc1cccc(F)c1C(=O)c1cnc(NC2CCN(S(C)(=O)=O)CC2)nc1N [SJ000581178-1]    11.75
COc1cc[nH]c1/C=C1\C(=O)Nc2ccc(F)c(I)c21 [SJ000581115-1]    0.5185

Inquiry: Give ML-2 %inh only, for COc1ccc(-c2cc(-c3c[nH]nc3-c3ccccn3)ccn2)cc1 [SJ000573277-1, FFJG/208/167/1] , using ML-2 data.
Reply text: -0.1507

Inquiry: Give ML-2 %inh only, for Fc1ccc(-c2c(-c3ccncc3)[nH]c3nccnc23)cc1 [SJ000580991-1] , using ML-2 data.
Reply text: -4.337

Attribution: paper PMC6522510
